- MEASUREMENT SETUP: in 2-ethoxyethanol, 318.15 K
MEASUREMENT LABEL: solubility (mole fraction)

> print(dat)
                       compound.string  reported.measurement
1  O=P(c1ccccc1)(c1ccccc1)c1cc(O)ccc1O                0.0154

----------
- MEASUREMENT SETUP: in ethanol, 313.45 K
MEASUREMENT LABEL: solubility (mole fraction)

> print(dat)
                       compound.string  reported.measurement
1  O=P(c1ccccc1)(c1ccccc1)c1cc(O)ccc1O               0.00903

----------
- MEASUREMENT SETUP: in water, 308.15 K
MEASUREMENT LABEL: solubility (mole fraction)

> print(dat)
                       compound.string           measurement.label  reported.measurement
1  O=P(c1ccccc1)(c1ccccc1)c1cc(O)ccc1O  solubility (mole fraction)               0.00012

----------
- MEASUREMENT SETUP: in ethanol, 298.26 K
MEASUREMENT LABEL: solubility (mole fraction)

> print(dat)
                       compound.string           measurement.label  reported.measurement
1  O=P(c1ccccc1)(c1ccccc1)c1cc(O)ccc1O  solubility (mole fraction)               0.00634

----------
- MEASUREMENT SETUP: in 2-ethoxyethanol, 328.26 K
MEASUREMENT LABEL: solubility (mole fraction)

> print(dat)
                       compound.string  reported.measurement
1  O=P(c1ccccc1)(c1ccccc1)c1cc(O)ccc1O                 0.018

----------
- MEASUREMENT SETUP: in acetone, 328.25 K
MEASUREMENT LABEL: solubility (mole fraction)

> print(dat)
                       compound.string  reported.measurement
1  O=P(c1ccccc1)(c1ccccc1)c1cc(O)ccc1O               0.00332

----------
- MEASUREMENT SETUP: in acetone, 313.47 K
MEASUREMENT LABEL: solubility (mole fraction)

> print(dat)
                       compound.string  reported.measurement
1  O=P(c1ccccc1)(c1ccccc1)c1cc(O)ccc1O               0.00236

----------
- MEASUREMENT SETUP: in 2-ethoxyethanol, 338.75 K
MEASUREMENT LABEL: solubility (mole fraction)

> print(dat)
                       compound.string  reported.measurement
1  O=P(c1ccccc1)(c1ccccc1)c1cc(O)ccc1O                0.0223

----------
- MEASUREMENT SETUP: in water, 323.47 K
MEASUREMENT LABEL: solubility (mole fraction)

> print(dat)
                       compound.string  reported.measurement
1  O=P(c1ccccc1)(c1ccccc1)c1cc(O)ccc1O               0.00014

----------
- MEASUREMENT SETUP: in toluene, 318.43 K
MEASUREMENT LABEL: solubility (mole fraction)

> print(dat)
                       compound.string  reported.measurement
1  O=P(c1ccccc1)(c1ccccc1)c1cc(O)ccc1O               0.00089
